# Tested on: K-562 leukemia
# assay_summary: NCI-60 one-dose screen, 48 h (100 = growth as untreated, 0 = no growth, -100 = all killed)
# run_conditions: 10 µM unless noted
About 83,000 compounds went through this panel and 20% of them were active in at least one assay; those are over-represented in the sample as a whole.
// classify: if (growth < 20%) Met else Not met

Check out these entries, answers already filled in.
molecule	assigned_label
Cc1ccc(NC(=O)CN2CCN(c3ncnc4c3cnn4-c3ccccc3)CC2)cc1	Not met
N/C(=N\c1nc2ccccc2s1)NC(=O)Nc1ccc(Cl)cc1Cl	Met
O=C(Cn1c(/C=C/c2ccccc2)nc2ccccc2c1=O)Nc1ccc(Cl)cc1	Not met

Item CC1(C)CC[C@]2(C(=O)O)CC[C@]3(C)C(=CCC4[C@@]5(C)C[C@@H](O)[C@@H]6OC(c7cccc(Br)c7)OC[C@@]6(C)C5CC[C@]43C)C2C1 (stereo partly drawn) : growth beneath 20%, strictly?
Met

Lab log: compare recorded growth with 20%; is it strictly lower for "CC(=O)Oc1ccccc1C(=O)[Se]CC(=O)Nc1cccc(C(F)(F)F)c1" ?
Met

Lab log: compare recorded growth with 20%; is it strictly lower for "COc1cc2oc(-c3cccc(C(=O)Nc4ccc(Cl)cc4)c3)cc(=O)c2c(OCCNC(=O)[C@@H](N)CCC(=O)O)c1OC" ?
Not met

Lab log: compare recorded growth with 20%; is it strictly lower for CCOC(=O)C1=C(N)N(c2ccccc2)C2=C(C(=O)CC(C)(C)C2)C1c1ccccc1Cl (stereo not drawn) ?
Not met

For this molecule, is growth lower than 20%? "COc1ccc(NC(=O)Cn2c3c(sc2=O)[C@H]2[C@@H](O)[C@@H](O)[C@H](O)[C@@H]2CS3)cc1"
Not met

Please determine if CN(C)CCOc1ccc(C(=O)C2[C@H](c3ccc(Cl)cc3)[C@@H](c3ccccc3)NC23C(=O)Nc2ccc(Br)cc23)cc1 (stereo partly drawn) is below 20% in terms of growth.
Met

Record "O=[N+]([O-])c1ccc(/C=C/c2nc3ccccc3n3c(=S)[nH]nc23)cc1" : is its growth strictly below 20%?
Not met

In the record for "NS(=O)(=O)c1ccc(N=Nc2c(O)n(CC(=O)Nc3ccccc3Cl)c3ccccc23)cc1" , is growth less than 20%?
Met

Lab note: confirm whether the reported growth for this molecule is below 20%, equality not counting. molecule: "COc1ccccc1C(=O)NN1C(=O)/C(=C/C2=Cc3ccccc3OC2)SC1=S"
Not met

For this molecule, is growth lower than 20%? C=C1CC[C@@H]2[C@]3(C)COC(c4cn(-c5ccccc5)nc4-c4ccccc4)O[C@@H]3CC[C@@]2(C)[C@@H]1C/C=C1/C(=O)OC[C@H]1O (stereo partly drawn)
Met
